- assayedSystem: HIV-1 Rev protein RNA recognition element (RRE)
- assayProcedure: Solid-phase assay: displacement of fluorescent Rev peptide from immobilized RRE
- Type: binding
- testSettings: Solid Phase Assay, competing tRNA (Table 2); read-out: IC50 with tRNA
Entries and their IC50

{"compound": "N=C(N)NCC1OC(OC2C(NC(=N)N)CC(NC(=N)N)C(OC3OC(CO)C(O)C(NC(=N)N)C3O)C2O)C(NC(=N)N)CC1O (centres unmarked) [guanidino-tobramycin]", "IC50, nM": 3500}
{"compound": "NC[C@H]1O[C@H](O[C@H]2[C@H](O)[C@@H](O[C@H]3O[C@H](CO)[C@@H](O)[C@H](N)[C@H]3O)[C@H](N)C[C@@H]2N)[C@H](N)C[C@@H]1O [Tobramycin]", "IC50, nM": 1100}

###

- assayedSystem: HIV-1 Rev protein RNA recognition element (RRE)
- assayProcedure: Solid-phase assay: displacement of fluorescent Rev peptide from immobilized RRE
- Assay type: binding
- testSettings: 15 ug/mL plasmid DNA (pGEM); read-out: IC50 (d) Solid-Phase + DNA
IC50 reference

{"compound": "N=C(N)NCC1OC(OC2C(CO)OC(OC3C(O)C(NC(=N)N)CC(NC(=N)N)C3OC3OC(CO)C(O)C(O)C3NC(=N)N)C2O)C(NC(=N)N)C(O)C1O (stereo not shown)", "IC50, µM": 16}
{"compound": "NC[C@@H]1O[C@H](O[C@H]2[C@@H](O)[C@H](O[C@@H]3[C@@H](O)[C@H](N)C[C@H](N)[C@H]3O[C@H]3O[C@H](CO)[C@@H](O)[C@H](O)[C@H]3N)O[C@@H]2CO)[C@H](N)[C@@H](O)[C@@H]1O", "IC50, µM": 60}
{"compound": "NC(N)=NC[C@@H]1O[C@H](O[C@H]2[C@H](O)[C@@H](O[C@H]3O[C@@H](CO)[C@H](O)[C@@H](N=C(N)N)[C@@H]3O)[C@H](N=C(N)N)C[C@@H]2N=C(N)N)[C@@H](O)[C@H](O)[C@H]1O", "IC50, µM": 55}
{"compound": "NC[C@@H]1O[C@H](O[C@H]2[C@@H](O)[C@H](O[C@@H]3[C@@H](O)[C@H](N)C[C@H](N)[C@H]3O[C@H]3O[C@H](CN)[C@@H](O)[C@H](O)[C@H]3N)O[C@@H]2CO)[C@H](N)[C@@H](O)[C@@H]1O", "IC50, µM": 8}

###

- assayedSystem: HIV-1 Rev protein RNA recognition element (RRE)
- assayProcedure: Solid-phase assay: displacement of fluorescent Rev peptide from immobilized RRE
- Format: binding
- testSettings: Solid-phase, no competitor (Table 4); read-out: IC50 (b) Solid-Phase
- Source text: To facilitate the discovery of active guanidinoglycosides an assay system using HIV-1 response elements can be used. For example, RRE-specific binders as well as TAR specific binders can be identified using the methods of the present invention. The present invention provides a rapid screening assay and method depicted in FIG. 4. […] A novel solid-phase assembly was used to evaluate the RNA specificity of the new derivatives. […] Table 4 (columns b-d) summarizes the IC50 values determined by this method. […]
Consider the reported IC50 of an entry and match it to a band in bottom range: < 6 µM; center range: ≥ 6 µM and < 50 µM; top range: ≥ 50 µM

{"compound": "NC[C@H]1O[C@H](O[C@H]2[C@H](O)[C@@H](O[C@H]3O[C@H](CO)[C@@H](O)[C@H](N)[C@H]3O)[C@H](N)C[C@@H]2N)[C@H](O)[C@@H](O)[C@@H]1O", "labelValue": "top range"}
{"compound": "N=C(N)NC[C@@H]1O[C@H](O[C@H]2[C@@H](O)[C@H](O[C@@H]3[C@@H](O)[C@H](NC(=N)N)C[C@H](NC(=N)N)[C@H]3O[C@H]3O[C@H](CNC(=N)N)[C@@H](O)[C@H](O)[C@H]3NC(=N)N)O[C@@H]2CO)[C@H](NC(=N)N)[C@@H](O)[C@@H]1O", "labelValue": "bottom range"}
{"compound": "NC[C@H]1O[C@H](O[C@H]2[C@H](O)[C@@H](O[C@H]3O[C@H](CO)[C@@H](O)[C@H](N)[C@H]3O)[C@H](N)C[C@@H]2N)[C@H](N)C[C@@H]1O", "labelValue": "center range"}
{"compound": "N=C(N)NCC1OC(OC2C(CO)OC(OC3C(O)C(NC(=N)N)CC(NC(=N)N)C3OC3OC(CO)C(O)C(O)C3NC(=N)N)C2O)C(NC(=N)N)C(O)C1O (stereo not shown)", "labelValue": "center range"}
{"compound": "N=C(N)NCC1OC(OC2C(NC(=N)N)CC(NC(=N)N)C(OC3OC(CO)C(O)C(NC(=N)N)C3O)C2O)C(NC(=N)N)CC1O (stereo not shown)", "labelValue": "bottom range"}
{"compound": "NC[C@H]1O[C@H](O[C@H]2[C@H](O)[C@@H](O[C@H]3O[C@H](CO)[C@@H](O)[C@H](N)[C@H]3O)[C@H](N)C[C@@H]2N)[C@H](N)[C@@H](O)[C@@H]1O", "labelValue": "top range"}
{"compound": "N=C(N)NCC1OC(OC2C(NC(=N)N)CC(NC(=N)N)C(OC3OC(CO)C(O)C(NC(=N)N)C3O)C2O)C(NC(=N)N)C(O)C1O (stereo not shown)", "labelValue": "bottom range"}
{"compound": "NC[C@@H]1O[C@H](O[C@H]2[C@@H](O)[C@H](O[C@@H]3[C@@H](O)[C@H](N)C[C@H](N)[C@H]3O[C@H]3O[C@H](CO)[C@@H](O)[C@H](O)[C@H]3N)O[C@@H]2CO)[C@H](N)[C@@H](O)[C@@H]1O", "labelValue": "top range"}

###

- assayedSystem: HIV-1 Rev protein RNA recognition element (RRE)
- assayProcedure: Solid-phase assay: displacement of fluorescent Rev peptide from immobilized RRE
- Format: binding
- testSettings: Solid Phase Assay, competing DNA (Table 2); read-out: IC50 with DNA
pIC50: −log10 of the molar value.
# pIC50 per record follows

{"compound": "N=C(N)NCC1OC(OC2C(NC(=N)N)CC(NC(=N)N)C(OC3OC(CO)C(O)C(NC(=N)N)C3O)C2O)C(NC(=N)N)CC1O (centres unmarked)", "pIC50": 5.52}
{"compound": "NC[C@H]1O[C@H](O[C@H]2[C@H](O)[C@@H](O[C@H]3O[C@H](CO)[C@@H](O)[C@H](N)[C@H]3O)[C@H](N)C[C@@H]2N)[C@H](N)C[C@@H]1O", "pIC50": 4.26}

###

- assayedSystem: HIV-1 Rev protein RNA recognition element (RRE)
- assayProcedure: Fluorescence anisotropy: displacement of fluorescein-labeled Rev peptide from the RRE in solution
- Assay type: binding
- testSettings: Fluorescence Anisotropy (Table 4); read-out: IC50 (a) Anisotrophy
pIC50: −log10 of the molar value.

{"molecule": "N=C(N)NCC1OC(OC2C(NC(=N)N)CC(NC(=N)N)C(OC3OC(CO)C(O)C(NC(=N)N)C3O)C2O)C(NC(=N)N)CC1O (stereo not shown)", "assayedSystem": "HIV-1 Rev protein RNA recognition element (RRE)", "pIC50": 5.42}
{"molecule": "NC[C@H]1O[C@H](O[C@H]2[C@H](O)[C@@H](O[C@H]3O[C@H](CO)[C@@H](O)[C@H](N)[C@H]3O)[C@H](N)C[C@@H]2N)[C@H](O)[C@@H](O)[C@@H]1O", "assayedSystem": "HIV-1 Rev protein RNA recognition element (RRE)", "pIC50": 3.12}
{"molecule": "N=C(N)NC[C@@H]1O[C@H](O[C@H]2[C@@H](O)[C@H](O[C@@H]3[C@@H](O)[C@H](NC(=N)N)C[C@H](NC(=N)N)[C@H]3O[C@H]3O[C@H](CNC(=N)N)[C@@H](O)[C@H](O)[C@H]3NC(=N)N)O[C@@H]2CO)[C@H](NC(=N)N)[C@@H](O)[C@@H]1O", "assayedSystem": "HIV-1 Rev protein RNA recognition element (RRE)", "pIC50": 5.89}
{"molecule": "NC[C@H]1O[C@H](O[C@H]2[C@H](O)[C@@H](O[C@H]3O[C@H](CO)[C@@H](O)[C@H](N)[C@H]3O)[C@H](N)C[C@@H]2N)[C@H](N)[C@@H](O)[C@@H]1O", "assayedSystem": "HIV-1 Rev protein RNA recognition element (RRE)", "pIC50": 4.10}

###

- assayedSystem: HIV-1 Rev protein RNA recognition element (RRE)
- assayProcedure: Solid-phase assay: displacement of fluorescent Rev peptide from immobilized RRE
- Type: binding
- testSettings: 15 ug/mL polyA-polyU duplex RNA; read-out: IC50 (c) Solid-Phase + poly A polyU

{"compound": "NC(N)=NC[C@@H]1O[C@H](O[C@H]2[C@H](O)[C@@H](O[C@H]3O[C@@H](CO)[C@H](O)[C@@H](N=C(N)N)[C@@H]3O)[C@H](N=C(N)N)C[C@@H]2N=C(N)N)[C@@H](O)[C@H](O)[C@H]1O [guanidino-kanamycinA, Guanidino Kanamycin A]", "readoutUnit": "µM", "IC50": 60}
{"compound": "NC[C@H]1O[C@H](O[C@H]2[C@H](O)[C@@H](O[C@H]3O[C@H](CO)[C@@H](O)[C@H](N)[C@H]3O)[C@H](N)C[C@@H]2N)[C@H](O)[C@@H](O)[C@@H]1O [KanamycinA, Kanamycin A]", "readoutUnit": "µM", "IC50": 1300}
{"compound": "NC[C@H]1O[C@H](O[C@H]2[C@H](O)[C@@H](O[C@H]3O[C@H](CO)[C@@H](O)[C@H](N)[C@H]3O)[C@H](N)C[C@@H]2N)[C@H](N)[C@@H](O)[C@@H]1O [KanamycinB, Kanamycin B]", "readoutUnit": "µM", "IC50": 160}
{"compound": "NC[C@@H]1O[C@H](O[C@H]2[C@@H](O)[C@H](O[C@@H]3[C@@H](O)[C@H](N)C[C@H](N)[C@H]3O[C@H]3O[C@H](CO)[C@@H](O)[C@H](O)[C@H]3N)O[C@@H]2CO)[C@H](N)[C@@H](O)[C@@H]1O [Paromomycin]", "readoutUnit": "µM", "IC50": 110}
{"compound": "NC[C@H]1O[C@H](O[C@H]2[C@H](O)[C@@H](O[C@H]3O[C@H](CO)[C@@H](O)[C@H](N)[C@H]3O)[C@H](N)C[C@@H]2N)[C@H](N)C[C@@H]1O [Tobramycin]", "readoutUnit": "µM", "IC50": 140}
{"compound": "N=C(N)NCC1OC(OC2C(NC(=N)N)CC(NC(=N)N)C(OC3OC(CO)C(O)C(NC(=N)N)C3O)C2O)C(NC(=N)N)C(O)C1O (stereo not shown) [guanidino-kanamycinB, Guanidino Kanamycin B]", "readoutUnit": "µM", "IC50": 4.7}
{"compound": "N=C(N)NCC1OC(OC2C(CO)OC(OC3C(O)C(NC(=N)N)CC(NC(=N)N)C3OC3OC(CO)C(O)C(O)C3NC(=N)N)C2O)C(NC(=N)N)C(O)C1O (stereo not shown) [guanidino-paromomycin, Guanidino Paromomycin]", "readoutUnit": "µM", "IC50": 20}
{"compound": "N=C(N)NC[C@@H]1O[C@H](O[C@H]2[C@@H](O)[C@H](O[C@@H]3[C@@H](O)[C@H](NC(=N)N)C[C@H](NC(=N)N)[C@H]3O[C@H]3O[C@H](CNC(=N)N)[C@@H](O)[C@H](O)[C@H]3NC(=N)N)O[C@@H]2CO)[C@H](NC(=N)N)[C@@H](O)[C@@H]1O [guanidino-neomycin B, Guanidino Neomycin]", "readoutUnit": "µM", "IC50": 4.5}
{"compound": "N=C(N)NCC1OC(OC2C(NC(=N)N)CC(NC(=N)N)C(OC3OC(CO)C(O)C(NC(=N)N)C3O)C2O)C(NC(=N)N)CC1O (stereo not shown) [guanidino-tobramycin]", "readoutUnit": "µM", "IC50": 5}
{"compound": "NC[C@@H]1O[C@H](O[C@H]2[C@@H](O)[C@H](O[C@@H]3[C@@H](O)[C@H](N)C[C@H](N)[C@H]3O[C@H]3O[C@H](CN)[C@@H](O)[C@H](O)[C@H]3N)O[C@@H]2CO)[C@H](N)[C@@H](O)[C@@H]1O [Neomycin B, Neomycin]", "readoutUnit": "µM", "IC50": 16}
